TARGET_SYSTEM: Leucine-rich repeat serine/threonine-protein kinase 2 (Homo sapiens);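 note: mean percent inhibition of LRRK2 measured in the GSK PKIS kinase inhibitor set screen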
PARTICULARS: at 1 µM
Kindly state inhibition for each of the entries shown.
Reply numerically in %, unit not repeated.

Bench note: what inhibition did CNC(=O)c1cncc(/C=C/c2c(C)cccc2C)c1 show?
-1.97

Bench note: what inhibition did CCc1nccc2c1nc(-c1nonc1N)n2CC show?
2.47

Bench note: what inhibition did Cc1ccc(NC(=O)c2ccoc2)cc1-c1ccc(C(=O)NCC2CC2)cc1 show?
4.06

Bench note: what inhibition did CCN(CC)Cc1ccc(Nc2nccc(-c3cnn4ncccc34)n2)cc1 show?
8.65

Bench note: what inhibition did COc1ccc2cc(-c3c(-c4ccncc4)nc(-c4ccc(S(C)(=O)=O)cc4C)n3C)ccc2c1 show?
6.91

Bench note: what inhibition did COc1cc2ncn(-c3cc(OCCc4ccccc4)c(C(N)=O)s3)c2cc1OC show?
10.8

Bench note: what inhibition did O=C(Nc1ccc(Oc2ccc3[nH]c(NC(=O)c4ccccc4)nc3c2)cc1)Nc1cc(C(F)(F)F)ccc1F show?
18.4

Bench note: what inhibition did CCc1cccc(CC)c1/C=C/c1cncc(C(=O)NC)c1 show?
4.51

Bench note: what inhibition did CS(=O)(=O)CCNCc1cc(-c2cc3c(Nc4ccc(OCc5cccc(F)c5)c(Cl)c4)ncnc3s2)cs1 show?
4.51

Bench note: what inhibition did Fc1ccc(-c2nc3n(c2-c2ccncc2)CCS3)cc1 show?
-3.17

Bench note: what inhibition did O=C(Nc1n[nH]c2nc(-c3ccco3)ccc12)C1CC1 show?
7.47

Bench note: what inhibition did CN(C)c1ccc2c(c1)/C(=C/Nc1ccc(S(N)(=O)=O)cc1)C(=O)N2 show?
16.7

Bench note: what inhibition did CN1CCN(CCCNc2nc3ccc(Oc4ccc(NC(=O)Nc5cc(C(F)(F)F)ccc5F)cc4)cc3[nH]2)CC1 show?
9.72

Bench note: what inhibition did C[C@@H](Oc1cc(-n2cnc3ccc(OC4CCN(C)CC4)cc32)sc1C(N)=O)c1ccccc1Cl show?
6.57

Bench note: what inhibition did COc1cccc(-n2cnc3c(N/N=C/c4ccncc4)ncnc32)c1 show?
7.17

Bench note: what inhibition did NS(=O)(=O)c1ccc(N/N=C2\C(=O)Nc3ccc(C(=O)NCCCn4ccnc4)cc32)cc1 show?
18.7

Bench note: what inhibition did COc1cc(Nc2ncc3c(C)nc(-c4cccc(C(F)(F)F)c4)n3n2)cc(OC)c1OC show?
17.4

Bench note: what inhibition did O=C1NC(=O)C(c2cccc(Cl)c2)=C1Nc1ccc(Cl)c(C(=O)O)c1 show?
4.76

Bench note: what inhibition did CS(=O)(=O)CCNCc1ccc(-c2ccc3ncnc(Nc4ccc(OCc5ccccc5)c(Br)c4)c3c2)o1 show?
-6.11

Bench note: what inhibition did O=C(Nc1n[nH]c2cc(-c3cc(F)ccc3F)ccc12)C1CC1 show?
3.26

Bench note: what inhibition did CN(C)CCOc1ccc(-c2cc(-c3ccc4c(c3)CCC4=NO)c(-c3ccncc3)o2)cc1 show?
3.55

Bench note: what inhibition did O=C1Nc2ccccc2/C1=C/Nc1ccc(-n2cncn2)cc1 show?
9.2

Bench note: what inhibition did CCS(=O)(=O)c1ccc(OC)c(Nc2ncc(-c3ccccc3Cl)o2)c1 show?
10.3
